Target: T1, recombinant human activated Factor VII (FVIIa) (human, UniProt P08709 61-212; P08709 213-466, ten glutamate residues of the Gla domain may be gamma-carboxylated)
T1 construct: chains tethered by a disulfide bond; also called Factor VIIa; rFVIIa
T1 sequence 1: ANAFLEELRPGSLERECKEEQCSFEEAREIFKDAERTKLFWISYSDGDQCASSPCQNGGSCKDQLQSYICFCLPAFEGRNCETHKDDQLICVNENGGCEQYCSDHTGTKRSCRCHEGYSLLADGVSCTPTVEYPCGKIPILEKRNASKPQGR
T1 sequence 2: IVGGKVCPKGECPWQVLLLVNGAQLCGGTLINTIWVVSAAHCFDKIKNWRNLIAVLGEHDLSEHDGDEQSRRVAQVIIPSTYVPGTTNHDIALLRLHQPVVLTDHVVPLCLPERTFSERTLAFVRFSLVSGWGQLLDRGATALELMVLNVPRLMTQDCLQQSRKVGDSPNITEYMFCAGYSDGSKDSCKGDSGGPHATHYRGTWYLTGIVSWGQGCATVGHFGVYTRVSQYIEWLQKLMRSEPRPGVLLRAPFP
Assay: BLI (Fortebio)
Kd for assorted binders
Field format: number, assumed nM, no unit text.

Worked examples follow.
| BINDER | OBSERVED_RESULT |
| --- | --- |
| VH SEQ ID NO 530 / VL SEQ ID NO 382 (antibody, IgG4, V domains shown, humanized 11F2; IgG4 S228P/kappa) VH: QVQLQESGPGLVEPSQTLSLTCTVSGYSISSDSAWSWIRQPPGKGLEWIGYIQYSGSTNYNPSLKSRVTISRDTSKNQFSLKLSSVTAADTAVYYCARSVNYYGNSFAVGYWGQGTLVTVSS VL: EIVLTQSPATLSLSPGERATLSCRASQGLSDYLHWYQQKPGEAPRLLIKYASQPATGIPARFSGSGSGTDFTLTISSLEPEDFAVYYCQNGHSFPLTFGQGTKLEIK | 1.1 |
| VH SEQ ID NO 626 / VL SEQ ID NO 486 (antibody, IgG4, V domains shown, humanized 11F2; IgG4 S228P/kappa) VH: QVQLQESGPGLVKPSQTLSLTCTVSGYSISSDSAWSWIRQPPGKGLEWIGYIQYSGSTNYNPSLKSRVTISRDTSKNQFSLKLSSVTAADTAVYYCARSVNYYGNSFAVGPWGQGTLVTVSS VL: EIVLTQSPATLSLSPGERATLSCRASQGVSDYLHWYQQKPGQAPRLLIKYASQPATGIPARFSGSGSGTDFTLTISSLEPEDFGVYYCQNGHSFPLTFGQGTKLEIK | 1.6 |

Let us move to another entry and its Kd.
Entry VH SEQ ID NO 538 / VL SEQ ID NO 430 (antibody, IgG4, V domains shown, humanized 11F2; IgG4 S228P/kappa) VH: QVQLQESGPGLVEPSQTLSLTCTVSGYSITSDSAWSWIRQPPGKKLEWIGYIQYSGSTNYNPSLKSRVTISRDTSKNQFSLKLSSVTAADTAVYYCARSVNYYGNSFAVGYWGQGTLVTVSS VL: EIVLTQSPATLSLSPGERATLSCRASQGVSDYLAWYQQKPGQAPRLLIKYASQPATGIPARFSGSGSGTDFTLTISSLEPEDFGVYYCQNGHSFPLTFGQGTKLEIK — recorded Kd = 8.3
